Cited source: paper PMC8518898

# Test details: Phase 1 hepatic impairment study
# Assay type: in vivo, human
# Assay setup: human, plasma, po, 200 mg, AUCinf, mild hepatic impairment; single 200-mg oral dose of abrocitinib; geometric mean (geometric %CV)

| Compound | AUC(0-inf) (ng·h/mL) |
| --- | --- |
| CCCS(=O)(=O)N[C@H]1C[C@@H](N(C)c2ncnc3[nH]ccc23)C1 [abrocitinib] | 7450 |

---

# Test details: Phase 1 hepatic impairment study
# Assay type: in vivo, human
# Assay setup: human, plasma, po, 200 mg, AUCinf, normal hepatic function; single 200-mg oral dose of abrocitinib; geometric mean (geometric %CV)
Readout type: AUC(0-inf) (ng·h/mL)

| Structure string | Readout type | Value |
| --- | --- | --- |
| CCCS(=O)(=O)N[C@H]1C[C@@H](N(C)c2ncnc3[nH]ccc23)C1 | AUC(0-inf) | 5590 |

---

# Test details: Phase 1 hepatic impairment study
# Type: in vivo, human
# Assay setup: human, plasma, po, 200 mg, tmax, normal hepatic function; single 200-mg oral dose of abrocitinib; median (range)

| Structure string | Unit string | tmax |
| --- | --- | --- |
| CCCS(=O)(=O)N[C@H]1C[C@@H](N(C)c2ncnc3[nH]ccc23)C1 | h | 2 |

---

# Test details: Phase 1 hepatic impairment study
# Assay type: in vivo, human
# Assay setup: human, plasma, po, 200 mg, AUClast, moderate hepatic impairment; single 200-mg oral dose of abrocitinib; geometric mean (geometric %CV)

| Structure string | AUC(0-t) |
| --- | --- |
| CCCS(=O)(=O)N[C@H]1C[C@@H](N(C)c2ncnc3[nH]ccc23)C1 | 8.55 µg·h/mL |

---

Listed below: IC50 values for each entry.
# Tested on: IFN‐α signaling (JAK1/TYK2 kinase dimer)
# Test details: In vitro whole blood inhibition of IFN-α signaling
# Assay type: cell-based
# Assay setup: read-out: unbound IC50 (IC50,u) of IFN‐α signaling; IC50,u = IC50 × [fu / (blood/plasma ratio)]

| Molecule | System | IC50, nM |
| --- | --- | --- |
| C[C@H](O)CS(=O)(=O)NC1CC(N(C)c2ncnc3[nH]ccc23)C1 (some centres unmarked) | IFN‐α signaling (JAK1/TYK2 kinase dimer) | 50.6 |
| CN(c1ncnc2[nH]ccc12)C1CC(NS(=O)(=O)CCCO)C1 (centres unmarked) | IFN‐α signaling (JAK1/TYK2 kinase dimer) | 165 |

---

# Test details: Phase 1 hepatic impairment study
# Type: in vivo, human
# Assay setup: human, plasma, po, 200 mg, AUClast, mild hepatic impairment; single 200-mg oral dose of abrocitinib; geometric mean (geometric %CV)
Readout type: AUC(0-t) (ng·h/mL)

| Compound | Value |
| --- | --- |
| CCCS(=O)(=O)N[C@H]1C[C@@H](N(C)c2ncnc3[nH]ccc23)C1 [abrocitinib] | 7430 |

---

# Test details: Phase 1 hepatic impairment study
# Format: in vivo, human
# Assay setup: human, plasma, po, 200 mg, AUClast, normal hepatic function; single 200-mg oral dose of abrocitinib; geometric mean (geometric %CV)
Readout type: AUC(0-t) (ng·h/mL)

| Compound | Readout type | Value |
| --- | --- | --- |
| CCCS(=O)(=O)N[C@H]1C[C@@H](N(C)c2ncnc3[nH]ccc23)C1 [abrocitinib] | AUC(0-t) | 5550 |

---

# Test details: Phase 1 hepatic impairment study
# Type: in vivo, human
# Assay setup: human, plasma, po, 200 mg, tmax, mild hepatic impairment; single 200-mg oral dose of abrocitinib; median (range)

| Structure string | Unit string | tmax |
| --- | --- | --- |
| CCCS(=O)(=O)N[C@H]1C[C@@H](N(C)c2ncnc3[nH]ccc23)C1 | h | 2 |

---

# Test details: Phase 1 hepatic impairment study
# Assay type: in vivo, human
# Assay setup: human, plasma, po, 200 mg, Cmax, moderate hepatic impairment; single 200-mg oral dose of abrocitinib; geometric mean (geometric %CV)
Readout type: Cmax (ng/mL)

| Molecule | Readout type | Value |
| --- | --- | --- |
| CCCS(=O)(=O)N[C@H]1C[C@@H](N(C)c2ncnc3[nH]ccc23)C1 [abrocitinib] | Cmax | 1430 |

---

# Test details: Phase 1 hepatic impairment study
# Format: in vivo, human
# Assay setup: human, plasma, po, 200 mg, tmax, moderate hepatic impairment; single 200-mg oral dose of abrocitinib; median (range)
Readout type: tmax (h)

| Molecule | Value |
| --- | --- |
| CCCS(=O)(=O)N[C@H]1C[C@@H](N(C)c2ncnc3[nH]ccc23)C1 [abrocitinib] | 1 |

---

# Test details: Phase 1 hepatic impairment study
# Format: in vivo, human
# Assay setup: human, plasma, po, 200 mg, Cmax, mild hepatic impairment; single 200-mg oral dose of abrocitinib; geometric mean (geometric %CV)
Readout type: Cmax (ng/mL)

| Compound | Unit string | Value |
| --- | --- | --- |
| CCCS(=O)(=O)N[C@H]1C[C@@H](N(C)c2ncnc3[nH]ccc23)C1 [abrocitinib] | ng/mL | 1280 |
